Reference for the values: patent US8921405B2

Measured IC50 by item
target.under.test: recombinant human mPGES-1 (Homo sapiens)
Sequence (O14684 1-152): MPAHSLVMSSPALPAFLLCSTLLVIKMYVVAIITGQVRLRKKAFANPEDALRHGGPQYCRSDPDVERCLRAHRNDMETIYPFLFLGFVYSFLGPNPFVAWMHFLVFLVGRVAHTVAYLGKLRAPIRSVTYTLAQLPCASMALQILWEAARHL
protocol.notes: mPGES-1 HTRF assay (inhibition of PGE2 formation from PGH2)
conditions: HTRF assay
property.label: IC50

| molecule | target.under.test | property.label | measured.value |
| --- | --- | --- | --- |
| O=C(Nc1ccc(Br)cc1)c1cc2nc(Nc3cc(CNC(=O)C4(C(F)(F)F)CC4)ccc3Cl)[nH]c2cc1OCC(F)F [Example 67] | recombinant human mPGES-1 (Homo sapiens) | IC50 | 2 nM |
| CN(C)CCn1c(Nc2cc(CNC(=O)C3(C(F)(F)F)CC3)ccc2Cl)nc2cc(C(=O)Nc3ccc(Br)cc3)ccc21 [Example 70] | recombinant human mPGES-1 (Homo sapiens) | IC50 | 3 nM |
| COc1cc2[nH]c(Nc3cc(CNC(=O)C4(C(F)(F)F)CC4)ccc3C(F)(F)F)nc2cc1C(=O)N[C@H]1CC[C@H](C(F)(F)F)CC1 [Example 93] | recombinant human mPGES-1 (Homo sapiens) | IC50 | 2 nM |
